TARGET OR TEST SYSTEM: T1, BCMA (Homo sapiens (Human), UniProt Q02223 1-54, limits assumed)
T1 sequence: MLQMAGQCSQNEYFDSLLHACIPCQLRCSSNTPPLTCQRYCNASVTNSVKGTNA
TEST: ELISA, format not described
Parameters: unit not given here
The reader will find reported ELISA_avg values listed item by item below.
READOUT KIND: ELISA_avg

[[record]]
binder = "D-domain SEQ ID NO: 297 (designed binder) MGSWGNFKYRLAIIKFHLEALGSSEAELATFEAWIANFESMLQNYKGKGNPEVEALRKEAAAIRDELQAYRHN"
readout_kind = "ELISA_avg"
measured_result = 22.7

[[record]]
binder = "D-domain SEQ ID NO: 82 (designed binder) MGSWTEFASRLVAIRQRLQALGGSEAELAAFEKEIAAFESELQAYKGKGNPEVEELRYSAAIIRVMLQAYRHN"
readout_kind = "ELISA_avg"
measured_result = 7.99

[[record]]
binder = "D-domain SEQ ID NO: 83 (designed binder) MGSWSEFDQRLAAIYQRLNALGGSEAELAAFEKEIAAFESELQAYKGKGNPEVEELRYSAALIRVMLQAYRHN"
readout_kind = "ELISA_avg"
measured_result = 7.72

[[record]]
binder = "D-domain SEQ ID NO: 232 (designed binder) MGSWGEFKHRLALIKWYLEALGGSEAELAHFEDWIAVFEVQLQNYKGKGNPEVEALRKEAAAIRDELQAYRHN"
readout_kind = "ELISA_avg"
measured_result = 17.1

[[record]]
binder = "D-domain SEQ ID NO: 119 (designed binder) MGSWYEFGDRLSAIWERLAALGGSEAELAAFEKEIAAFESELQAYKGKGNPEVEYLRTHAAEIRTILQAYRHN"
readout_kind = "ELISA_avg"
measured_result = 8.89

[[record]]
binder = "D-domain SEQ ID NO: 147 (designed binder) MGSWGEFSDRLEAINERLWALGGSEAELAAFEKEIAAFESELQAYKGKGNPEVEELRWQAAFIRANLQAYRHN"
readout_kind = "ELISA_avg"
measured_result = 4.26

[[record]]
binder = "D-domain SEQ ID NO: 230 (designed binder) MGSWNEFYQRLEAIENRLQALGGSEAELAMFEVRIALFEDMLQGYKGKGNPEVEALKQEAIAILRELIAYRHN"
readout_kind = "ELISA_avg"
measured_result = 6.01

[[record]]
binder = "D-domain SEQ ID NO: 227 (designed binder) MGSWSIEFWRLEAIKFRLIALGGSEAELAAFEKEIAAFESELQAYKGKGNPEVEFLRVEAAAIRRVLQAYRHN"
readout_kind = "ELISA_avg"
measured_result = 8.43

[[record]]
binder = "D-domain SEQ ID NO: 258 (designed binder) MGSWGAFKYRLAIIKFYLEALGGSEAELARFEEFIANFEHDLQNYKGKGNPEVEALRKEAAAIRDELQAYRHN"
readout_kind = "ELISA_avg"
measured_result = 12.9

[[record]]
binder = "D-domain SEQ ID NO: 96 (designed binder) MGSWWEFEDRLSAIMERLHALGGSEAELAAFEKEIAAFESELQAYKGKGNPEVEELRYRAAIIRVYLQAYRHN"
readout_kind = "ELISA_avg"
measured_result = 10.4

[[record]]
binder = "D-domain SEQ ID NO: 129 (designed binder) MGSWVEFGTRLSAIYNRLWALGGSEAELAAFEKEIAAFESELQAYKGKGNPEVEDLRFEAAIIRIMLQAYRHN"
readout_kind = "ELISA_avg"
measured_result = 15.4

[[record]]
binder = "D-domain SEQ ID NO: 320 (designed binder) MGSWDHFKYNLAWIKKYLEALGGSEAELATFEWYIANFEKRLQDYKGKGNPEVEALRKEAAAIRDELQAYRHN"
readout_kind = "ELISA_avg"
measured_result = 9.81

[[record]]
binder = "D-domain SEQ ID NO: 91 (designed binder) MGSWTEFEHRLEAIAGRLNALGGSEAELAAFEKEIAAFESELQAYKGKGNPEVEELRYSAALIRFWLQAYRHN"
readout_kind = "ELISA_avg"
measured_result = 6.34

[[record]]
binder = "D-domain SEQ ID NO: 76 (designed binder) MGSWEEFQYRLGAIAARLQALGGSEAELAAFEKEIAAFESELQAYKGKGNPEVEELRWQAAMIRFMLQAYRHN"
readout_kind = "ELISA_avg"
measured_result = 3.11

[[record]]
binder = "D-domain SEQ ID NO: 213 (designed binder) MGSWYEFWKRLYAIEYRLFALGGSEAELAAFEKEIAAFESELQAYKGKGNPEVEALRKVAAKIREQLQAYRHN"
readout_kind = "ELISA_avg"
measured_result = 14.8

[[record]]
binder = "D-domain SEQ ID NO: 94 (designed binder) MGSWIEFHQRLEAIVTRLEALGGSEAELAAFEKEIAAFESELQAYKGKGNPEVEELRYQAALIRVFLQAYRHN"
readout_kind = "ELISA_avg"
measured_result = 8

[[record]]
binder = "D-domain SEQ ID NO: 270 (designed binder) MGSWNQFKYRLAVIKFYLEALGGSEAELAHFETWIAAFEEQLQFYKGKGNPEVEALRKEAAAIRDELQAYRHN"
readout_kind = "ELISA_avg"
measured_result = 12.8

[[record]]
binder = "D-domain SEQ ID NO: 314 (designed binder) MGSWGYFKTGLAIIKAQLEALGGSEAELADFELWIAQFEETLQFYKGKGNPEVEALRKEAAAIRDELQAYRHN"
readout_kind = "ELISA_avg"
measured_result = 12.8

[[record]]
binder = "D-domain SEQ ID NO: 149 (designed binder) MGSWMEFEGRLPAILARLRALGGSEAELAAFEKEIAAFESELQAYKGKGNPEVEHLRDKAAYIRWMLQAYRHN"
readout_kind = "ELISA_avg"
measured_result = 3.93

